MIC90 values for the molecules below.
System: Mycoplasmoides pneumoniae
Method Summary: Antimicrobial activity against Mycoplasma pneumoniae by broth microdilution method
Assay type: functional
Quick note: give the figure in µg/mL, leave out the unit.

Examples with their reported MIC90 follow.
- Molecule: "COc1c(N2CC3(CC3)[C@](C)(N)C2)c(F)cc2c(=O)c(C(=O)O)cn([C@@H]3C[C@@H]3F)c12"
  MIC90 [µg/mL]: 0.063
- Molecule: "CN(C)[C@@H]1C(O)=C(C(N)=O)C(=O)[C@@]2(O)C(O)=C3C(=O)c4c(O)cccc4[C@@](C)(O)[C@H]3C[C@@H]12 [TETRACYCLINE]"
  MIC90 [µg/mL]: 1
- Molecule: "C[C@H]1c2cccc(O)c2C(=O)C2=C(O)[C@]3(O)C(=O)C(C(N)=O)=C(O)[C@@H](N(C)C)[C@@H]3[C@@H](O)[C@@H]21.O [DOXYCYCLINE]"
  MIC90 [µg/mL]: 0.5

Exercise: For the record COc1c(N2C[C@@H]3CCCN[C@@H]3C2)c(F)cc2c(=O)c(C(=O)O)cn(C3CC3)c12 [MOXIFLOXACIN] , what value of MIC90 is listed for Mycoplasmoides pneumoniae?
Key: 0.125

====

Tested on: Ureaplasma parvum
Method Summary: Antimicrobial activity against fluoroquinolone-resistant Ureaplasma parvum by broth microdilution method
Type: functional
Readout Name: MIC (µg/mL)
Quick note: give the figure in µg/mL, leave out the unit.

Examples with their reported MIC follow.
- Structure String: "C[C@H]1COc2c(N3CCN(C)CC3)c(F)cc3c(=O)c(C(=O)O)cn1c23.C[C@H]1COc2c(N3CCN(C)CC3)c(F)cc3c(=O)c(C(=O)O)cn1c23.O"
  Readout Name: "MIC"
  Unit Abbreviation: "µg/mL"
  Value Measured: 16
- Structure String: "O=C(O)c1cn(C2CC2)c2cc(N3CCNCC3)c(F)cc2c1=O"
  Readout Name: "MIC"
  Unit Abbreviation: "µg/mL"
  Value Measured: 32
- Structure String: "COc1c(N2C[C@@H]3CCCN[C@@H]3C2)c(F)cc2c(=O)c(C(=O)O)cn(C3CC3)c12"
  Readout Name: "MIC"
  Unit Abbreviation: "µg/mL"
  Value Measured: 4

Exercise: Fill blank: measured MIC of the compound COc1c(N2CC3(CC3)[C@](C)(N)C2)c(F)cc2c(=O)c(C(=O)O)cn([C@@H]3C[C@@H]3F)c12 is ____.
Key: 4

====

System: Mycoplasmoides pneumoniae
Method Summary: Antimicrobial activity against Mycoplasma pneumoniae by broth microdilution method
Type: functional
MIC90 values for the compounds below.
Quick note: give the figure in µg/mL, leave out the unit.

Examples with their reported MIC90 follow.
- Structure String: "CC[C@H]1OC(=O)[C@H](C)[C@@H](O[C@H]2C[C@@](C)(OC)[C@@H](O)[C@H](C)O2)[C@H](C)[C@@H](O[C@@H]2O[C@H](C)C[C@H](N(C)C)[C@H]2O)[C@](C)(O)C[C@@H](C)C(=O)[C@H](C)[C@@H](O)[C@]1(C)O"
  Readout Name: "MIC90"
  Value Measured: 0.004
- Structure String: "O=C(O)c1cn(C2CC2)c2cc(N3CCNCC3)c(F)cc2c1=O"
  Readout Name: "MIC90"
  Value Measured: 4

Exercise: Fill blank: measured MIC90 of the compound C[C@H]1COc2c(N3CCN(C)CC3)c(F)cc3c(=O)c(C(=O)O)cn1c23.C[C@H]1COc2c(N3CCN(C)CC3)c(F)cc3c(=O)c(C(=O)O)cn1c23.O is ____.
Key: 1

====

System: Metamycoplasma hominis
Method Summary: Antimicrobial activity against Mycoplasma hominis by broth microdilution method
Type: functional
Readout Name: log10(MIC90) (log10 of the value in µg/mL)
All values: log10 MIC90 [µg/mL].

Examples with their reported log10(MIC90) follow.
- Structure String: "CC[C@H]1OC(=O)[C@H](C)[C@@H](O[C@H]2C[C@@](C)(OC)[C@@H](O)[C@H](C)O2)[C@H](C)[C@@H](O[C@@H]2O[C@H](C)C[C@H](N(C)C)[C@H]2O)[C@](C)(O)C[C@@H](C)C(=O)[C@H](C)[C@@H](O)[C@]1(C)O"
  Value Measured: -1.49
- Structure String: "O=C(O)c1cn(C2CC2)c2cc(N3CCNCC3)c(F)cc2c1=O"
  Value Measured: 0.00
- Structure String: "COc1c(N2CC3(CC3)[C@](C)(N)C2)c(F)cc2c(=O)c(C(=O)O)cn([C@@H]3C[C@@H]3F)c12"
  Value Measured: -0.60
- Structure String: "C[C@H]1COc2c(N3CCN(C)CC3)c(F)cc3c(=O)c(C(=O)O)cn1c23.C[C@H]1COc2c(N3CCN(C)CC3)c(F)cc3c(=O)c(C(=O)O)cn1c23.O"
  Value Measured: -0.30
- Structure String: "C[C@H]1c2cccc(O)c2C(=O)C2=C(O)[C@]3(O)C(=O)C(C(N)=O)=C(O)[C@@H](N(C)C)[C@@H]3[C@@H](O)[C@@H]21.O"
  Value Measured: 0.90

Exercise: For the record CN(C)[C@@H]1C(O)=C(C(N)=O)C(=O)[C@@]2(O)C(O)=C3C(=O)c4c(O)cccc4[C@@](C)(O)[C@H]3C[C@@H]12 , what value of log10(MIC90) is listed for Metamycoplasma hominis?
Key: 1.20

Exercise: For the record COc1c(N2C[C@@H]3CCCN[C@@H]3C2)c(F)cc2c(=O)c(C(=O)O)cn(C3CC3)c12 , what value of log10(MIC90) is listed for Metamycoplasma hominis?
Key: -1.20

====

Tested on: Ureaplasma parvum
Method Summary: Antimicrobial activity against Ureaplasma parvum by broth microdilution method
Format: functional
MIC90 values for the compounds below.

Examples with their reported MIC90 follow.
- Structure String: "O=C(O)c1cn(C2CC2)c2cc(N3CCNCC3)c(F)cc2c1=O"
  Readout Name: "MIC90"
  Value Measured: "16 µg/mL"
- Structure String: "CC[C@H]1OC(=O)[C@H](C)[C@@H](O[C@H]2C[C@@](C)(OC)[C@@H](O)[C@H](C)O2)[C@H](C)[C@@H](O[C@@H]2O[C@H](C)C[C@H](N(C)C)[C@H]2O)[C@](C)(O)C[C@@H](C)CN(C)[C@H](C)[C@@H](O)[C@]1(C)O"
  Readout Name: "MIC90"
  Value Measured: "2 µg/mL"
- Structure String: "C[C@H]1c2cccc(O)c2C(=O)C2=C(O)[C@]3(O)C(=O)C(C(N)=O)=C(O)[C@@H](N(C)C)[C@@H]3[C@@H](O)[C@@H]21.O"
  Readout Name: "MIC90"
  Value Measured: "2 µg/mL"

Exercise: Fill blank: measured MIC90 of the compound COc1c(N2CC3(CC3)[C@](C)(N)C2)c(F)cc2c(=O)c(C(=O)O)cn([C@@H]3C[C@@H]3F)c12 is ____.
Key: 2 µg/mL

Exercise: Fill blank: measured MIC90 of the compound C[C@H]1COc2c(N3CCN(C)CC3)c(F)cc3c(=O)c(C(=O)O)cn1c23.C[C@H]1COc2c(N3CCN(C)CC3)c(F)cc3c(=O)c(C(=O)O)cn1c23.O is ____.
Key: 2 µg/mL

====

System: Ureaplasma parvum
Method Summary: Antimicrobial activity against Ureaplasma parvum by broth microdilution method
Type: functional
Readout Name: MIC90 (µg/mL)
Quick note: give the figure in µg/mL, leave out the unit.

Examples with their reported MIC90 follow.
- Structure String: "CN(C)[C@@H]1C(O)=C(C(N)=O)C(=O)[C@@]2(O)C(O)=C3C(=O)c4c(O)cccc4[C@@](C)(O)[C@H]3C[C@@H]12"
  MIC90 [µg/mL]: 8
- Structure String: "CC[C@H]1OC(=O)[C@H](C)[C@@H](O[C@H]2C[C@@](C)(OC)[C@@H](O)[C@H](C)O2)[C@H](C)[C@@H](O[C@@H]2O[C@H](C)C[C@H](N(C)C)[C@H]2O)[C@](C)(O)C[C@@H](C)C(=O)[C@H](C)[C@@H](O)[C@]1(C)O"
  MIC90 [µg/mL]: 4

Now for a further compound.
Exercise: Fill blank: measured MIC90 of the compound COc1c(N2C[C@@H]3CCCN[C@@H]3C2)c(F)cc2c(=O)c(C(=O)O)cn(C3CC3)c12 is ____.
Key: 2
